# maps each entry to its Her2 level
target: Receptor tyrosine-protein kinase erbB-2 (Homo sapiens); assay: reducers of endogenous Her2 protein level, primary screen, SKBR3 breast tumor cells, AlphaScreen, ATP viability (AID 461); settings: 18-24 h, at 10 µM, active compounds read low;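 note: lower value means less Her2 protein in the cells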

# Compound, Her2 level [%]
records = [
    ("CCOC(=O)c1oc2cccc(OC(C)=O)c2c1C", 82),
    ("CCn1c(SCC(=O)NCc2ccco2)nc2c(c1=O)SC(C)C2 (stereo not given)", 91),
    ("O=C(NCC1CCCO1)C1CCCN(Cc2cnn(-c3ccccc3)c2-n2cccc2)C1 (stereo not given)", 124),
    ("CCOC(=O)N1CCN(C(=O)CCc2c(C)nc3c(c(C)nn3-c3ccc(C)c(C)c3)c2C)CC1", 88.5),
    ("O=C(NCCCn1ccnc1)c1cnn2c1NC(c1ccccc1)CC2C(F)(F)F (stereo not given)", 139),
    ("Cc1ccc(CSC2=NCCN2C(=O)c2ccco2)cc1", 98),
    ("COc1ccc(/C=N/n2c(=O)[nH]c3c([nH]c4ccc(C)cc43)c2=O)cc1CN1CCOCC1", 100),
    ("Cc1ccc(-c2csc3ncn(-n4c(C)ccc4C)c(=O)c23)o1", 114),
    ("O=C(CN(Cc1ccco1)C(=O)CNS(=O)(=O)c1ccc(F)cc1)NCCc1ccccc1", 91.5),
    ("CC(C)(C)Nc1nc(NC(C)(C)C)nc(-n2ccnc2)n1", 80),
]

---

experiment: reversal of MRP1-mediated doxorubicin resistance, pilot screen, H69AR cells, doxorubicin co-treatment (AID 601); conditions: H69AR cells + 2 uM doxorubicin, CellTiter-Glo, 72 h; at 10 µM; active compounds read high
differential viability (reversal) reference

# Molecule, differential viability (reversal) [%]
data = [
    ("COC(=O)c1ccc(N2C(=O)CC(N3CCN(C(=O)c4ccco4)CC3)C2=O)cc1 (stereo not given)", -4.23),
    ("Cc1ccc2cc(C(c3nnnn3CC3CCCO3)N3CCCC4(CCCCC4)C3)c(=O)[nH]c2c1 (stereo not given)", -8.48),
    ("CCCc1ccc(S(=O)(=O)NCCc2ccncc2)cc1", 16.6),
    ("CCCCS(=O)(=O)NC1=NCN(C2CCN(Cc3ccccc3)CC2)CN1", 9.66),
    ("O=C(OCc1cc2ccccc2[nH]c1=O)c1ccco1", 6.74),
    ("CCN(CC)CCCNC(=O)c1nn(-c2ccc(OC)cc2OC)c(=O)c2ccccc12", -0.935),
    ("CCOC(=O)CSc1nnc(NC(=O)c2cccc(S(=O)(=O)N3CCCCC3)c2)s1", 9.55),
    ("O=C(CCCn1ncn2c(cc3occc32)c1=O)N1CCc2ccccc2C1", -5.79),
    ("CC(=O)OCC(=O)[C@@]1(O)[C@H](C)C[C@H]2[C@@H]3CCC4=CC(=O)C=C[C@]4(C)[C@@]3(F)[C@@H](O)C[C@@]21C", -15.8),
    ("CCOc1ccc2ccccc2c1/C=N/n1cncn1", -11.2),
    ("COc1ccc(-c2ccc(CCC(=O)O)n2NC(=O)c2cccs2)cc1", 3),
    ("O=C(OCc1ccc2c(c1)OCO2)c1ccc(S(=O)(=O)N2CCCCC2)cc1", 0.615),
    ("CCOC(=O)C1CCCN(C(=O)c2cc3c(=O)n4cccc(C)c4nc3n2C)C1 (stereo not given)", 5.81),
    ("CCC(Sc1nc(-c2ccccc2)c(C#N)c(=O)[nH]1)C(=O)Nc1cc(C)on1 (stereo not given)", 0.62),
    ("CCOC(=O)/N=C(/NC(=O)Nc1ccc(C(=O)OCC)cc1)OC", 14.8),
    ("COc1ccccc1CNS(=O)(=O)c1ccc(NC(C)=O)cc1", -7.69),
    ("Cc1ccc(NC(=O)C2CCCN(S(=O)(=O)c3cnc[nH]3)C2)c(Br)c1 (stereo not given)", 8.17),
    ("C[C@@H]1C[C@H]2[C@@H]3CCC4=CC(=O)C=C[C@]4(C)[C@@]3(F)[C@@H](O)C[C@]2(C)[C@H]1C(=O)CO", -10.7),
    ("CC(NC(=O)C1CCCN(S(=O)(=O)c2cccs2)C1)c1ccccc1 (stereo not given)", 1.41),
    ("CCCN1CCN(C(=O)Cn2c(=O)oc3cc(S(=O)(=O)NCc4ccccc4)ccc32)CC1", 7.88),
]

---

assay: 384-well plate pilot, post-Golgi transport modulator project, inhibition of yeast transport mutant growth (AID 636); conditions: absorbance 615 nm, about 18 h
The source made the active and inactive calls. Cut-off read from the data, not from the text of the source: active = inhibition above about 31%; inactive = the rest.
Possible outcomes: label 1 (active), label 0 (inactive)

# Compound, Class label
rows = [
    ("COc1ccccc1CNC(=O)N[C@@H](Cc1ccccc1)C(=O)O", "label 0"),
    ("CCN(CC)CCN1C(=O)C(=O)/C(=C(/O)c2c(C)[nH]c(C(=O)OC)c2C)C1c1ccco1 (stereo not drawn)", "label 0"),
    ("c1ccc(-c2noc(C3CCCCC3)n2)nc1", "label 0"),
    ("CCOC(=O)C1CCN(c2c(NCCN3CCN(c4ccccc4)CC3)c(=O)c2=O)CC1", "label 0"),
    ("Cc1ccc(Cl)cc1NC(=O)CSc1nnc(C)n1-c1ccccc1", "label 0"),
    ("CS(=O)(=O)N1CCN(c2ccccc2NC(=O)c2cccs2)CC1", "label 0"),
    ("CC(C)c1nnc(SCC(=O)NCc2ccco2)n1C", "label 0"),
    ("COc1ccc(-n2nnnc2-c2cccc(OC)c2)cc1", "label 0"),
    ("CCc1nnc(NC(=O)c2cc3ccccc3oc2=O)s1", "label 0"),
    ("COc1ccc(C2C(C(=O)c3sc(C)nc3C)=C(O)C(=O)N2CCN(C)C)cc1OC (stereo not drawn)", "label 0"),
    ("CNC(=O)CSc1nnc(-c2ccc(S(=O)(=O)N3CCCC3)cc2)n1-c1cccc(C)c1C", "label 0"),
    ("CN(C)C(=O)CSc1nnc([C@H](Cc2c[nH]c3ccccc23)NC(=O)OC(C)(C)C)o1", "label 0"),
    ("COc1ccc(Oc2nc(Oc3ccc(OC)cc3)nc(Oc3ccc(OC)cc3)n2)cc1", "label 0"),
    ("O=C(O)C1CCCN1C(=O)Nc1ccc(F)cc1 (stereo not drawn)", "label 0"),
    ("C#CC(CO)N(CCN(Cc1ccccc1)C(C#C)CO)Cc1ccccc1 (stereo not drawn)", "label 0"),
    ("CCn1c(=O)c(=O)[nH]c2cc(C(=O)N3CCN(c4ccccc4F)CC3)ccc21", "label 0"),
    ("Cn1c(Cl)nc2ccccc21", "label 0"),
    ("COc1cc(S(=O)(=O)N2CCC(N3CCCCC3)CC2)ccc1-n1cnnn1", "label 0"),
    ("COc1ccc(CN(C(=O)c2oc3ccccc3c2C)C2CCS(=O)(=O)C2)cc1 (stereo not drawn)", "label 0"),
    ("CCOC(=O)C1CCN(S(=O)(=O)c2cc(Cl)c(C)cc2OC)CC1", "label 0"),
    ("Cc1nc2cc(Cl)ccc2n1CCO", "label 0"),
    ("COc1ccc(Br)cc1C(=O)Nc1nnn(C)n1", "label 0"),
    ("CC1CCN(CC(O)COC2CCC(C(C)(C)C)CC2)CC1 (stereo not drawn)", "label 1"),
]

---

test: viability gain of MRP-1-high H69AR cells under doxorubicin, pilot screen, MRP-1 activator project, CellTiter-Glo, duplicate (AID 807); conditions: H69AR viability with doxorubicin, CellTiter-Glo luminescence; at 10 µM; active compounds read high;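 note: compound pretreatment 18-22 h then 72 h combined with doxorubicin; 0% = doxorubicin alone and 100% = vehicle without doxorubicin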
Catalogue of molecules with associated viability increase
Measurement label: viability increase (%)

# Molecule, Measurement label, Numeric value
rows = [
    ("C=CCOC(=O)C1=C(C)NC(C)=C(C(=O)OCC=C)C1c1ccc(O)cc1", "viability increase", -4.51),
    ("Cc1onc(-c2ccccc2Cl)c1C(=O)OCN1C(=O)c2ccccc2C1=O", "viability increase", -2.89),
    ("CC1CCCN(C(=O)CNC(=O)Cn2ccc3ccccc3c2=O)C1 (configuration not stated)", "viability increase", -1.73),
    ("O=C(Nc1ccc(Cl)cc1)C1CC2CCCC(C1)C2=O (configuration not stated)", "viability increase", 0.77),
    ("O=C(C1CCCN(S(=O)(=O)c2cccc3cccnc23)C1)N1CCN(c2ccccc2F)CC1 (configuration not stated)", "viability increase", -0.18),
    ("CCOC(=O)C1CCN(C(=O)Cc2c(C(=O)O)[nH]c3ccccc23)CC1", "viability increase", -1.36),
    ("CC1(C)Cc2c(c(=S)nc(-c3ccccc3)n2CCOCCO)CO1", "viability increase", -2.12),
    ("CCOC(=O)N1CCC(NC(=O)C(CC(C)C)NC(=O)C2CCCCC2)CC1 (configuration not stated)", "viability increase", -2.08),
    ("Cc1ccc(C)c(NC(=O)CSc2nnc(-c3ccncc3)n2N)c1", "viability increase", -4.65),
    ("CCN1C(=O)CSc2ccc(C(=O)OC)cc21", "viability increase", -1.33),
    ("Cc1cc(OCC(=O)Nc2cc(-c3nn4c(C)nnc4s3)ccc2C)ccc1Cl", "viability increase", -0.6),
    ("CCOc1ccc(C2CC(c3ccc(F)cc3)Nc3nc(N)nn32)cc1 (configuration not stated)", "viability increase", 2.97),
    ("O=S(=O)(NC1CCCCC1NCc1ccco1)c1ccccc1 (configuration not stated)", "viability increase", -4.92),
    ("COc1ccc(S(=O)(=O)NCc2ccc3c(c2)cc(C)n3C)cc1", "viability increase", -4.17),
    ("CCOC(=O)N1CCc2c(sc(NC(=O)c3ccc(S(=O)(=O)N4CCCC4)cc3)c2C#N)C1", "viability increase", -1.2),
    ("C(=C\\CSc1nnnn1-c1ccccc1)/CSc1nnnn1-c1ccccc1", "viability increase", -1.58),
    ("CCN(CC)CCNC(=O)c1cc2c(=O)n(C)c3ccccc3c2n1C", "viability increase", -4.8),
    ("Cc1ccc2oc(=O)c3cnn(CC(=O)NCCCOC(C)C)c3c2c1", "viability increase", -2.72),
    ("COc1ccc(OC)c(-c2nnc(NC(=O)C(C)Sc3nncn3C)s2)c1 (configuration not stated)", "viability increase", -4.48),
    ("CCOC(=O)N1CCN(C(=O)c2ccc(CN(c3ccc(C)c(C)c3)S(C)(=O)=O)cc2)CC1", "viability increase", -2.96),
    ("Cc1onc(-c2ccccc2)c1C(=O)N1CCN(C/C=C/c2ccccc2)CC1", "viability increase", -5.02),
    ("O=C(COc1ccccc1)NCCSc1ccccc1", "viability increase", -2.23),
]
